Test: Kinetic hydrolysis catalyzed by pig liver esterase at pH 1.2
Assay type: ADME, Sus scrofa
ATTRIBUTE_MEASURED: half-life (min)
Return type: number; implicit unit min.

[in] State the recorded half-life for this entry: COC(=O)C(C)NP(=O)(OCC=C=Cn1cnc2c(N)ncnc21)Oc1ccccc1 (stereo in doubt; 2a)
[out] 1460

Values compiled from ChEMBL document CHEMBL1129608.
